These measurements were taken from patent US20220177587A1.

SYSTEM TESTED: human CTLA-4 (human) (UniProt P16410)
Sequence (P16410 36-223): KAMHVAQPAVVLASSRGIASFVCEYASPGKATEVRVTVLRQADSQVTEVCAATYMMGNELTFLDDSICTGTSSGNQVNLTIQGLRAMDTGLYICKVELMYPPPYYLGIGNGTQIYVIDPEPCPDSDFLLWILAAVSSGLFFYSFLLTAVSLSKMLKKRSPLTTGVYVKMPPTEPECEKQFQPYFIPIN
TEST: flow cytometry, CHO cells stably expressing CTLA4
MEASURED PROPERTY: MFI at 33.3 nM (MFI)

>>> assay_value("variant CD80 IgV-Fc (inert) H18T/A26N/E35D/M47L/V68M/A71G (Fc fusion) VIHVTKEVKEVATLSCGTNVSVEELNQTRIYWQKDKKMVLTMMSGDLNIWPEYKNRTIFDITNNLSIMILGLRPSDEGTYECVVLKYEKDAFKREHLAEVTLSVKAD")
20900
>>> assay_value("variant CD80 IgV-Fc (inert) H18C/A26P/E35D/M47L/V68M/A71G (Fc fusion) VIHVTKEVKEVATLSCGCNVSVEELPQTRIYWQKDKKMVLTMMSGDLNIWPEYKNRTIFDITNNLSIMILGLRPSDEGTYECVVLKYEKDAFKREHLAEVTLSVKAD")
23400
>>> assay_value("CD80 IgV-Fc E35D/M47L/V68M/A71G/L85Q/D90G (Fc fusion) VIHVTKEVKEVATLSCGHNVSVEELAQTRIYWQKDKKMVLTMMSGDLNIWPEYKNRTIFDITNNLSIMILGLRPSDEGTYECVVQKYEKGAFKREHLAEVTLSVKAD")
10300
